# Test system: 786-0 renal
# protocol_description: NCI tumour cell line growth inhibition, 48 h
test_readout: TGI (µM)
Report the figure in µM without appending any unit label.

Consider the worked cases shown below.
Problem: Given "C=CC(=O)Nc1cccc(C)c1Nc1cc(-c2cccnc2Cc2c(C)c(OC)cc(OC)c2C)ncn1" , report its TGI on 786-0 renal.
Result: 39.6

Problem: Given "CCCN(C(=O)c1c(Cl)nnc(Cl)c1C(=O)c1cc(Cl)nnc1Cl)c1cc(Cl)nnc1Cl" , report its TGI on 786-0 renal.
Result: 21

Problem: Given "CCN=C1C=CC(=C(c2ccc(N)cc2)c2ccc(N(CC)CC)c(C)c2)C=C1" , report its TGI on 786-0 renal.
Result: 1.84

---
Problem: Given COC(=O)C(Cc1ccccc1)NC(=O)NC(=O)NC(=O)CI (stereo not given) , report its TGI on 786-0 renal.
Result: 10.9

Problem: Given "CC(=O)Nc1ccccc1SCCSSCCSc1ccccc1NC(C)=O" , report its TGI on 786-0 renal.
Result: 64.3

Problem: Given CCCCCCCCCCCCCCCCCC(=O)OCC(COC1OC(COP(=O)(O)O)C(O)C(O)C1O)OC(=O)CCCCCCCCCCCCCCCCC (stereo not given) , report its TGI on 786-0 renal.
Result: 14.9
